ASSAYED_SYSTEM: T1, human CD3e/d (human, UniProt P07766 23-126; P04234 22-105)
T1 construct: Bought soluble protein; also called hCD3e/d; human CD3/ed (Sino CT038-H2508H)
T1 sequence (P07766 23-126, chain 1 of 2): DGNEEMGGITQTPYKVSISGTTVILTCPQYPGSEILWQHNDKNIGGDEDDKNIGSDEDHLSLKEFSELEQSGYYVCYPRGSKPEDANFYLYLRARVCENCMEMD
T1 sequence (P04234 22-105, chain 2 of 2): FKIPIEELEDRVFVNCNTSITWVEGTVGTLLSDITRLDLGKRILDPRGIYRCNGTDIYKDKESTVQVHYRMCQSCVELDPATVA
EXPERIMENT: SPR (Carterra LSA), mAb on chip
pKd: −log10 of the molar value.
Mark NO for pKd values under 7, and YES for everything at or above.

## Task Textbook exercise: given the entry mAb 284 (antibody, V domains shown, VH and VL only) VH: EVQLLESGGGLVQPGGSLRLSCAASGFTFSSYAMSWVRQAPGKGLEWVSAISGSSGRTYYTDSVKGRFTISRDNSKNTLSLQMNSLRAEDTAVYYCAKKYSYYYYYMDVWGKGTTVTVSS VL: SYELTQPLSVSVALGQTAKITCGGNNIGSKNVHWYQQKPGQAPVLVIYRDSNRPSGIPERFSGSNSGNTATLTISRAQAGDEADYYCQVWDSSTAVFGGGTQLTAL , state whether its pKd is greater than or equal to 7.
## Result NO

## Task Textbook exercise: given the entry mAb 306 (antibody, V domains shown, VH and VL only) VH: EVQLLESGGGLVQPGGSLRLSCAASGFTFNSYAMSWVRQAPGRGLEWVSAISGRKSTTYYADSVKGRFTISRDNSKNTLYLQMNSLRAEDTAVYYCAKLWNYYYYYMDVWGKGTTVTVSS VL: SYELTQPLSVSVALGQTARITCGGNNIGSKDVHWYQQKPGQAPVLVIYRDSNRPSGIPERFSGSNSGNTATLTISRAQAGDEADYYCQVWDSSTAVFGGGTQLTAL , state whether its pKd is greater than or equal to 7.
## Result NO

## Task Textbook exercise: given the entry mAb 128 (antibody, V domains shown, VH and VL only) VH: EVQLVESGGGLVQPGRSLRLSCAASGFTFDDYTMHWVRQAPGKGLEWVSGISWNSGSIGYADSVKGRFTISRDNAKNSLYLQMNSLRAEDTALYYCAKDSSGYGYYYYYSMDVWGKGTTVTVSS VL: EIVMTQSPATLSVSPGERATLSCRASQSVSSNLAWYQQKPGQAPRLLIYGASTRATGIPARFSGSGSGTEFTLTISSLQSEDFAVYYCQLYYNWPHFGQGTRLAIK , state whether its pKd is greater than or equal to 7.
## Result NO

## Task Textbook exercise: given the entry mAb 176 (antibody, V domains shown, VH and VL only) VH: EVELVESGGGLVQPGRSLRLSCAASGFKFDDYTMHWVRLPPGKGLEWVSGISWNSGTIDYGDSVKGRFTISRDNAKNSLYLQMNSLRVEDTALYYCAKDTSGYGHYFYYYMDVWGKGTTVTVSS VL: DIQMTQSPSSLSASIGDRVSITCRTSQIINNYLNWYQQKPGKAPKVLIYSASSLQSGVPSRFSGSGSGTDFTLTINSLQPEDFATYYCQQSYNFPITFGQGTRLELK , state whether its pKd is greater than or equal to 7.
## Result YES

## Task Textbook exercise: given the entry mAb 237 (antibody, V domains shown, VH and VL only) VH: EVQLLESGGDLVQPGGSLRLTCAASGFTFRSYAMNWVRQAPGKGLEWVSTISSRGDTTNYADSVKGRFTISRDTSKNTLYLQMDNLRADDTAVYYCSKMFSYYYYYMDVWGKGTTVTVSS VL: SYELTQPLSVSVALGQTARITCGGNNIGSKDVHWYQQKPGQAPVLVIYRDSNRPSGIPERFSGSNSGNTATLTISRAQAGDEADYYCQVWDSRTAVFGGGTQLTAL , state whether its pKd is greater than or equal to 7.
## Result YES
